- TARGET OF ASSAY: CDK-9/Cyclin T1 (Homo sapiens, UniProt P50750)
- Sequence (P50750 whole entry): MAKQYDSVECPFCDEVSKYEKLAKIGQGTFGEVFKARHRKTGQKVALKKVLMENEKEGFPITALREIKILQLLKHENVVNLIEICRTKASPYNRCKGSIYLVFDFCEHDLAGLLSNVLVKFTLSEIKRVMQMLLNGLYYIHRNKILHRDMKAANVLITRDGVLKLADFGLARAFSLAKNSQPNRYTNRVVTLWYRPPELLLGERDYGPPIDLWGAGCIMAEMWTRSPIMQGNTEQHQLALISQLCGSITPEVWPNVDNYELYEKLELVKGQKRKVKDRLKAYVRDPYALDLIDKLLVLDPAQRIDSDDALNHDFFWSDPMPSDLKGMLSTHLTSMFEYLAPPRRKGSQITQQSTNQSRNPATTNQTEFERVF
- Sequence (O60563 whole entry partner): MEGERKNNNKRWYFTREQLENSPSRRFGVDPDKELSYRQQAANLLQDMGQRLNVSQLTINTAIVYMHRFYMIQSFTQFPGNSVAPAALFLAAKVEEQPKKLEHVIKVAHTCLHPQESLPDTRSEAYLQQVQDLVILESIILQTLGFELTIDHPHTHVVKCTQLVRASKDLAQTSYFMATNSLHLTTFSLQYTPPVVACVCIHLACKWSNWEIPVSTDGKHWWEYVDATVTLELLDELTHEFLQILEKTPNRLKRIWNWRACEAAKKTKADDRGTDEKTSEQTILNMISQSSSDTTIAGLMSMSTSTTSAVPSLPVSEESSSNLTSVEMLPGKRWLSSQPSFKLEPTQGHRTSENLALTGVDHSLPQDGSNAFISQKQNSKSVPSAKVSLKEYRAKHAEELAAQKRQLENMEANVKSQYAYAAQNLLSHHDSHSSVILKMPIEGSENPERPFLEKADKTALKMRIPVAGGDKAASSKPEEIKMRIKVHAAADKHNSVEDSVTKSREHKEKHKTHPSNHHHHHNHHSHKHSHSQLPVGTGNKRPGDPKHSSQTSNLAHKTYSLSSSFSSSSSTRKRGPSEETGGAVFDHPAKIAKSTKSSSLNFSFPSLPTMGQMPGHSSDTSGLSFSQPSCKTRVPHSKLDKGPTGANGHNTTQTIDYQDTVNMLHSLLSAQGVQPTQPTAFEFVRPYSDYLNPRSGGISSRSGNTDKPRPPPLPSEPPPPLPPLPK
- TEST DETAILS: CDK inhibition assay, CDK-9/Cyclin T1 against substrate peptide, 33P-ATP
- Type: biochemical
- RECORDED CONDITIONS: at 500 nM; Table-6; read-out: In vitro CDK9 % of inhibition
Attribute: inhibition at 0.5 µM

>  <STRUCTURE SMILES STRING>
CCc1ccccc1-c1cnc2[nH]cc(-c3ccnc(NC4CC4)n3)c2c1

>  <TARGET OF ASSAY>
CDK-9/Cyclin T1 (Homo sapiens, UniProt P50750)

>  <inhibition at 0.5 µM>
> 70%

$$$$
>  <STRUCTURE SMILES STRING>
CSc1ccc(-c2cnc3[nH]cc(-c4ccnc(NC5CCCCCC5)n4)c3c2)cc1

>  <TARGET OF ASSAY>
CDK-9/Cyclin T1 (Homo sapiens, UniProt P50750)

>  <inhibition at 0.5 µM>
> 50%

$$$$
>  <STRUCTURE SMILES STRING>
CSc1ccccc1-c1cnc2[nH]cc(-c3ccnc(NC4CC4)n3)c2c1

>  <TARGET OF ASSAY>
CDK-9/Cyclin T1 (Homo sapiens, UniProt P50750)

>  <inhibition at 0.5 µM>
> 70%

$$$$
>  <STRUCTURE SMILES STRING>
O=Cc1ccc(-c2cnc3[nH]cc(-c4ccnc(NC5CCCC5)n4)c3c2)cc1

>  <TARGET OF ASSAY>
CDK-9/Cyclin T1 (Homo sapiens, UniProt P50750)

>  <inhibition at 0.5 µM>
> 50%

$$$$
>  <STRUCTURE SMILES STRING>
Cc1ccc(-c2cnc3[nH]cc(-c4ccnc(NC5CCCC5)n4)c3c2)cc1

>  <TARGET OF ASSAY>
CDK-9/Cyclin T1 (Homo sapiens, UniProt P50750)

>  <inhibition at 0.5 µM>
> 50%

$$$$
>  <STRUCTURE SMILES STRING>
c1ccc2[nH]c(-c3cnc4[nH]cc(-c5ccnc(NC6CC6)n5)c4c3)cc2c1

>  <TARGET OF ASSAY>
CDK-9/Cyclin T1 (Homo sapiens, UniProt P50750)

>  <inhibition at 0.5 µM>
> 70%

$$$$
>  <STRUCTURE SMILES STRING>
CSc1ccc(-c2cnc3[nH]cc(-c4ccnc(NC5CCCC5)n4)c3c2)cc1

>  <TARGET OF ASSAY>
CDK-9/Cyclin T1 (Homo sapiens, UniProt P50750)

>  <inhibition at 0.5 µM>
> 50%

$$$$
>  <STRUCTURE SMILES STRING>
COc1ccc2[nH]c(-c3cnc4[nH]cc(-c5ccnc(NC6CCCC6)n5)c4c3)cc2c1

>  <TARGET OF ASSAY>
CDK-9/Cyclin T1 (Homo sapiens, UniProt P50750)

>  <inhibition at 0.5 µM>
> 70%

$$$$
>  <STRUCTURE SMILES STRING>
COc1ccc(-c2cnc3[nH]cc(-c4ccnc(NC5CCCC5)n4)c3c2)cc1

>  <TARGET OF ASSAY>
CDK-9/Cyclin T1 (Homo sapiens, UniProt P50750)

>  <inhibition at 0.5 µM>
> 50%

$$$$

====

Attribute: inhibition at 0.5 µM
- TARGET OF ASSAY: CDK-2/cyclin A (Homo sapiens, UniProt P24941)
- TEST DETAILS: CDK inhibition assay, CDK-2/cyclin A against Histone HI, 33P-ATP
- Assay type: biochemical
- RECORDED CONDITIONS: at 500 nM; Table-7; read-out: In vitro CDK2 % of inhibition
- Experimental: Compounds were evaluated for their ability to inhibit CDK2 and CDK9 as given below. CDK-2/cyclin A (5-20 mU diluted in 50 mM Hepes pH 7.5, 1 mM DTT, 0.02% Brij35, 100 mM NaCl) was assayed against Histone HI in a final volume of 25.5 µl containing 50 mM Hepes pH7.5, 1 mM DTT, 0.02% Brij35, 100 mM NaCl, Histone HI (1 mg/ml), 10 mM magnesium acetate and 0.02 mM [33P-g-ATP](500-1000 cpm/pmole) and incubated for 30 min at room temperature. […]
MEASURED QUANTITY: inhibition at 0.5 µM

>  <COMPOUND>
COc1ccc(-c2cnc3[nH]cc(-c4ccnc(NCCc5ccccc5)n4)c3c2)cc1 [1B11]

>  <TARGET OF ASSAY>
CDK-2/cyclin A (Homo sapiens, UniProt P24941)

>  <MEASURED QUANTITY>
inhibition at 0.5 µM

>  <READING>
> 50%

$$$$
>  <COMPOUND>
CCc1ccccc1-c1cnc2[nH]cc(-c3ccnc(NCCc4ccccc4)n3)c2c1 [1B10]

>  <TARGET OF ASSAY>
CDK-2/cyclin A (Homo sapiens, UniProt P24941)

>  <MEASURED QUANTITY>
inhibition at 0.5 µM

>  <READING>
> 50%

$$$$
>  <COMPOUND>
FC(F)(F)c1ccc(-c2cnc3[nH]cc(-c4ccnc(NCCc5ccccc5)n4)c3c2)cc1 [1B1]

>  <TARGET OF ASSAY>
CDK-2/cyclin A (Homo sapiens, UniProt P24941)

>  <MEASURED QUANTITY>
inhibition at 0.5 µM

>  <READING>
< 50%

$$$$
>  <COMPOUND>
c1ccc2c(-c3cnc4[nH]cc(-c5ccnc(NC6CCCCCC6)n5)c4c3)nccc2c1 [1A60]

>  <TARGET OF ASSAY>
CDK-2/cyclin A (Homo sapiens, UniProt P24941)

>  <MEASURED QUANTITY>
inhibition at 0.5 µM

>  <READING>
> 70%

$$$$
>  <COMPOUND>
FC(F)(F)Oc1ccc(-c2cnc3[nH]cc(-c4ccnc(NCCc5ccccc5)n4)c3c2)cc1 [1B3]

>  <TARGET OF ASSAY>
CDK-2/cyclin A (Homo sapiens, UniProt P24941)

>  <MEASURED QUANTITY>
inhibition at 0.5 µM

>  <READING>
> 50%

$$$$
>  <COMPOUND>
COc1ccc2[nH]c(-c3cnc4[nH]cc(-c5ccnc(NC6CCCCCC6)n5)c4c3)cc2c1 [1A57]

>  <TARGET OF ASSAY>
CDK-2/cyclin A (Homo sapiens, UniProt P24941)

>  <MEASURED QUANTITY>
inhibition at 0.5 µM

>  <READING>
> 70%

$$$$
>  <COMPOUND>
c1cc(-c2c[nH]c3ncc(-c4ccoc4)cc23)nc(NC2CCCCCC2)n1 [1A56]

>  <TARGET OF ASSAY>
CDK-2/cyclin A (Homo sapiens, UniProt P24941)

>  <MEASURED QUANTITY>
inhibition at 0.5 µM

>  <READING>
> 70%

$$$$
>  <COMPOUND>
COc1ccc(-c2cnc3[nH]cc(-c4ccnc(NC5CCCCCC5)n4)c3c2)cc1 [1A51]

>  <TARGET OF ASSAY>
CDK-2/cyclin A (Homo sapiens, UniProt P24941)

>  <MEASURED QUANTITY>
inhibition at 0.5 µM

>  <READING>
> 70%

$$$$
>  <COMPOUND>
O=Cc1ccc(-c2cnc3[nH]cc(-c4ccnc(NC5CCCCCC5)n4)c3c2)cc1 [1A53]

>  <TARGET OF ASSAY>
CDK-2/cyclin A (Homo sapiens, UniProt P24941)

>  <MEASURED QUANTITY>
inhibition at 0.5 µM

>  <READING>
> 70%

$$$$
>  <COMPOUND>
c1ccc2c(-c3cnc4[nH]cc(-c5ccnc(NC6CCCCCC6)n5)c4c3)cccc2c1 [1A54]

>  <TARGET OF ASSAY>
CDK-2/cyclin A (Homo sapiens, UniProt P24941)

>  <MEASURED QUANTITY>
inhibition at 0.5 µM

>  <READING>
> 70%

$$$$
>  <COMPOUND>
c1ccc(CCNc2nccc(-c3c[nH]c4ncc(-c5nccc6ccccc56)cc34)n2)cc1 [1B20]

>  <TARGET OF ASSAY>
CDK-2/cyclin A (Homo sapiens, UniProt P24941)

>  <MEASURED QUANTITY>
inhibition at 0.5 µM

>  <READING>
> 50%

$$$$
>  <COMPOUND>
CSc1ccccc1-c1cnc2[nH]cc(-c3ccnc(N)n3)c2c1 [1C9]

>  <TARGET OF ASSAY>
CDK-2/cyclin A (Homo sapiens, UniProt P24941)

>  <MEASURED QUANTITY>
inhibition at 0.5 µM

>  <READING>
> 70%

$$$$
>  <COMPOUND>
c1ccc(CCNc2nccc(-c3c[nH]c4ncc(-c5ccoc5)cc34)n2)cc1 [1B16]

>  <TARGET OF ASSAY>
CDK-2/cyclin A (Homo sapiens, UniProt P24941)

>  <MEASURED QUANTITY>
inhibition at 0.5 µM

>  <READING>
> 70%

$$$$
>  <COMPOUND>
CSc1ccccc1-c1cnc2[nH]cc(-c3ccnc(NCCc4ccccc4)n3)c2c1 [1B9]

>  <TARGET OF ASSAY>
CDK-2/cyclin A (Homo sapiens, UniProt P24941)

>  <MEASURED QUANTITY>
inhibition at 0.5 µM

>  <READING>
> 50%

$$$$
>  <COMPOUND>
c1ccc(CCNc2nccc(-c3c[nH]c4ncc(-c5cc6ccccc6s5)cc34)n2)cc1 [1B18]

>  <TARGET OF ASSAY>
CDK-2/cyclin A (Homo sapiens, UniProt P24941)

>  <MEASURED QUANTITY>
inhibition at 0.5 µM

>  <READING>
> 50%

$$$$
>  <COMPOUND>
Clc1ccc(-c2cnc3[nH]cc(-c4ccnc(NC5CCCCCC5)n4)c3c2)cc1 [1A52]

>  <TARGET OF ASSAY>
CDK-2/cyclin A (Homo sapiens, UniProt P24941)

>  <MEASURED QUANTITY>
inhibition at 0.5 µM

>  <READING>
> 70%

$$$$
>  <COMPOUND>
c1cncc(-c2cnc3[nH]cc(-c4ccnc(NC5CCCCCC5)n4)c3c2)c1 [1A55]

>  <TARGET OF ASSAY>
CDK-2/cyclin A (Homo sapiens, UniProt P24941)

>  <MEASURED QUANTITY>
inhibition at 0.5 µM

>  <READING>
> 70%

$$$$
>  <COMPOUND>
c1ccc(CCNc2nccc(-c3c[nH]c4ncc(-c5cccnc5)cc34)n2)cc1 [1B15]

>  <TARGET OF ASSAY>
CDK-2/cyclin A (Homo sapiens, UniProt P24941)

>  <MEASURED QUANTITY>
inhibition at 0.5 µM

>  <READING>
> 70%

$$$$
